assay: Multiple ascending dose IV study in healthy adult subjects (safety, PK); assay type: in vivo, human; details: human, plasma, intravenous, 100 mg, 100 mg weekly, Day 1
*1 amine or outer side, *2 acyl side, *3 side chain or, on linkers, in order; H or OH if unused. Where a SMILES comes first, the peptide text is derived from it. Bridges are numbered along the chain shown (N, C = ends). [ ]: non-standard residue; d: D form. The star is where a group is joined. Orn(4R-OH,5R-OCH2CH2NMe3+) = C[N+](C)(C)CCO[C@@H](N[*:3])[C@H](O)C[C@H](N[*:1])C(=O)[*:2]; pTerphenylCO(4''-OnC5H11) = CCCCCOc1ccc(-c2ccc(-c3ccc(C(=O)*)cc3)cc2)cc1; hTyr(3S-OH,4S-OH) = N[C@H](C(=O)O)[C@H](O)[C@@H](O)c1ccc(O)cc1; Pro(3S-OH,4S-Me) = C[C@H]1CN[C@H](C(=O)O)[C@H]1O; Hyp = O=C(O)[C@@H]1C[C@@H](O)CN1
ASSAY ENDPOINT: Cmax (ng/mL)
Only the number, expressed in ng/mL, is required.

### Prompt Give the measured Cmax for CCCCCOc1ccc(-c2ccc(-c3ccc(C(=O)N[C@H]4C[C@@H](O)[C@@H](OCC[N+](C)(C)C)NC(=O)[C@@H]5[C@@H](O)[C@@H](C)CN5C(=O)[C@H]([C@@H](C)O)NC(=O)[C@H]([C@H](O)[C@@H](O)c5ccc(O)cc5)NC(=O)[C@@H]5C[C@@H](O)CN5C(=O)[C@H]([C@@H](C)O)NC4=O)cc3)cc2)cc1 [CD101] ({pTerphenylCO(4''-OnC5H11)}-[Orn(4R-OH,5R-OCH2CH2NMe3+)]T[Hyp][hTyr(3S-OH,4S-OH)]T[Pro(3S-OH,4S-Me)]; lactam 1-C)
### Response 5670

Hello, the source for this data is patent US20240108684A1, in case you need it.
